Data provenance: patent US20090252788A1

Measured Diff. Volume %, listed per entry.
experiment: Particle size distribution and specific surface area (LS 200, Small Volume Module, Fraunhofer optical model); type: physicochemical; conditions: Particle Diameter (Lower) 2.011 μm
Readout type: Diff. Volume %

1) O=C([O-])CCNC(=O)c1ccc(/N=N/c2ccc(O)c(C(=O)[O-])c2)cc1.[Na+].[Na+] [Sample 2] :: 16.1%
2) O=C([O-])CCNC(=O)c1ccc(/N=N/c2ccc(O)c(C(=O)[O-])c2)cc1.[Na+].[Na+] [Sample 3] :: 12.1%
3) O=C(O)CCNC(=O)c1ccc(/N=N/c2ccc(O)c(C(=O)O)c2)cc1 [Feed Powder Sample A (#35.$01)] :: 9.30%
4) O=C(O)CCNC(=O)c1ccc(/N=N/c2ccc(O)c(C(=O)O)c2)cc1 [Feed Powder Sample B (#41.$02)] :: 3.16%
5) O=C([O-])CCNC(=O)c1ccc(/N=N/c2ccc(O)c(C(=O)[O-])c2)cc1.[Na+].[Na+] [Sample 4] :: 4.37%
6) O=C([O-])CCNC(=O)c1ccc(/N=N/c2ccc(O)c(C(=O)[O-])c2)cc1.[Na+].[Na+] [Sample 1] :: 14.4%
7) O=C(O)CCNC(=O)c1ccc(/N=N/c2ccc(O)c(C(=O)O)c2)cc1 [Feed Powder Sample C (#53.$02)] :: 11.3%

* * *

test: Particle size distribution and specific surface area (LS 200, Small Volume Module, Fraunhofer optical model); type: physicochemical; conditions: Particle Diameter (Lower) 176.9 μm
Measured Cum. < Volume %, listed per entry.
Readout type: Cum. < Volume % (%)

1. O=C([O-])CCNC(=O)c1ccc(/N=N/c2ccc(O)c(C(=O)[O-])c2)cc1.[Na+].[Na+] [Sample 4] :: 99.8
2. O=C(O)CCNC(=O)c1ccc(/N=N/c2ccc(O)c(C(=O)O)c2)cc1 [Feed Powder Sample C (#53.$02)] :: 100
3. O=C([O-])CCNC(=O)c1ccc(/N=N/c2ccc(O)c(C(=O)[O-])c2)cc1.[Na+].[Na+] [Sample 3] :: 100

* * *

assay: Particle size distribution and specific surface area (LS 200, Small Volume Module, Fraunhofer optical model); format: physicochemical; conditions: Particle Diameter (Lower) 1660 μm
Readout type: Diff. Volume % (%)

1. O=C([O-])CCNC(=O)c1ccc(/N=N/c2ccc(O)c(C(=O)[O-])c2)cc1.[Na+].[Na+] [Sample 2] :: 0
2. O=C([O-])CCNC(=O)c1ccc(/N=N/c2ccc(O)c(C(=O)[O-])c2)cc1.[Na+].[Na+] [Sample 4] :: 0
3. O=C([O-])CCNC(=O)c1ccc(/N=N/c2ccc(O)c(C(=O)[O-])c2)cc1.[Na+].[Na+] [Sample 3] :: 0
4. O=C([O-])CCNC(=O)c1ccc(/N=N/c2ccc(O)c(C(=O)[O-])c2)cc1.[Na+].[Na+] [Sample 1] :: 0

* * *

Experiment: Particle size distribution and specific surface area (LS 200, Small Volume Module, Fraunhofer optical model)
Format: physicochemical
Conditions: Particle Diameter (Lower) 0.656 μm
Description: FIG. 2 depicts and the data below tabulate for Sample 1 the arithmetic statistics describing surface area, particle size, and cumulative volume characteristics for one lot of drug substance (feed material). The particle size distribution for this lot is depicted in FIG. 2. Table 11 A-D tabulates the arithmetic statistics describing surface area, particle size, and cumulative volume characteristics for three lots of drug substance (feed material). […]
Readout type: Diff. Volume % (%)

1. O=C([O-])CCNC(=O)c1ccc(/N=N/c2ccc(O)c(C(=O)[O-])c2)cc1.[Na+].[Na+] [Sample 3] :: 4.92
2. O=C([O-])CCNC(=O)c1ccc(/N=N/c2ccc(O)c(C(=O)[O-])c2)cc1.[Na+].[Na+] [Sample 1] :: 6.09
3. O=C(O)CCNC(=O)c1ccc(/N=N/c2ccc(O)c(C(=O)O)c2)cc1 [Feed Powder Sample A (#35.$01)] :: 3.88
4. O=C(O)CCNC(=O)c1ccc(/N=N/c2ccc(O)c(C(=O)O)c2)cc1 [Feed Powder Sample B (#41.$02)] :: 1.50
5. O=C(O)CCNC(=O)c1ccc(/N=N/c2ccc(O)c(C(=O)O)c2)cc1 [Feed Powder Sample C (#53.$02)] :: 4.37
6. O=C([O-])CCNC(=O)c1ccc(/N=N/c2ccc(O)c(C(=O)[O-])c2)cc1.[Na+].[Na+] [Sample 2] :: 6.59
7. O=C([O-])CCNC(=O)c1ccc(/N=N/c2ccc(O)c(C(=O)[O-])c2)cc1.[Na+].[Na+] [Sample 4] :: 1.55

* * *

assay: Particle size distribution and specific surface area (LS 200, Small Volume Module, Fraunhofer optical model); type: physicochemical; conditions: Particle Diameter (Lower) 33.01 μm
Readout type: Cum. < Volume % (%)

1. O=C([O-])CCNC(=O)c1ccc(/N=N/c2ccc(O)c(C(=O)[O-])c2)cc1.[Na+].[Na+] [Sample 3] :: 99.2
2. O=C([O-])CCNC(=O)c1ccc(/N=N/c2ccc(O)c(C(=O)[O-])c2)cc1.[Na+].[Na+] [Sample 1] :: 99.97
3. O=C(O)CCNC(=O)c1ccc(/N=N/c2ccc(O)c(C(=O)O)c2)cc1 [Feed Powder Sample B (#41.$02)] :: 72.5
4. O=C(O)CCNC(=O)c1ccc(/N=N/c2ccc(O)c(C(=O)O)c2)cc1 [Feed Powder Sample C (#53.$02)] :: 98.9
5. O=C([O-])CCNC(=O)c1ccc(/N=N/c2ccc(O)c(C(=O)[O-])c2)cc1.[Na+].[Na+] [Sample 4] :: 78.0
6. O=C([O-])CCNC(=O)c1ccc(/N=N/c2ccc(O)c(C(=O)[O-])c2)cc1.[Na+].[Na+] [Sample 2] :: 99.8
7. O=C(O)CCNC(=O)c1ccc(/N=N/c2ccc(O)c(C(=O)O)c2)cc1 [Feed Powder Sample A (#35.$01)] :: 95.9

* * *

Measured Cum. < Volume %, listed per entry.
test: Particle size distribution and specific surface area (LS 200, Small Volume Module, Fraunhofer optical model); type: physicochemical; details: Particle Diameter (Lower) 0.656 μm
Readout type: Cum. < Volume % (%)

1. O=C(O)CCNC(=O)c1ccc(/N=N/c2ccc(O)c(C(=O)O)c2)cc1 [Feed Powder Sample B (#41.$02)] :: 0.64
2. O=C([O-])CCNC(=O)c1ccc(/N=N/c2ccc(O)c(C(=O)[O-])c2)cc1.[Na+].[Na+] [Sample 1] :: 2.66
3. O=C([O-])CCNC(=O)c1ccc(/N=N/c2ccc(O)c(C(=O)[O-])c2)cc1.[Na+].[Na+] [Sample 4] :: 0.61
4. O=C(O)CCNC(=O)c1ccc(/N=N/c2ccc(O)c(C(=O)O)c2)cc1 [Feed Powder Sample C (#53.$02)] :: 1.96
5. O=C([O-])CCNC(=O)c1ccc(/N=N/c2ccc(O)c(C(=O)[O-])c2)cc1.[Na+].[Na+] [Sample 3] :: 2.13
6. O=C(O)CCNC(=O)c1ccc(/N=N/c2ccc(O)c(C(=O)O)c2)cc1 [Feed Powder Sample A (#35.$01)] :: 1.82
7. O=C([O-])CCNC(=O)c1ccc(/N=N/c2ccc(O)c(C(=O)[O-])c2)cc1.[Na+].[Na+] [Sample 2] :: 2.91

* * *

Measured Cum. < Volume %, listed per entry.
assay: Particle size distribution and specific surface area (LS 200, Small Volume Module, Fraunhofer optical model); assay type: physicochemical; conditions: Particle Diameter (Lower) 18.86 μm
Readout type: Cum. < Volume % (%)

1) O=C([O-])CCNC(=O)c1ccc(/N=N/c2ccc(O)c(C(=O)[O-])c2)cc1.[Na+].[Na+] [Sample 3] :: 92.0
2) O=C(O)CCNC(=O)c1ccc(/N=N/c2ccc(O)c(C(=O)O)c2)cc1 [Feed Powder Sample B (#41.$02)] :: 49.5
3) O=C([O-])CCNC(=O)c1ccc(/N=N/c2ccc(O)c(C(=O)[O-])c2)cc1.[Na+].[Na+] [Sample 4] :: 52.5
4) O=C([O-])CCNC(=O)c1ccc(/N=N/c2ccc(O)c(C(=O)[O-])c2)cc1.[Na+].[Na+] [Sample 1] :: 95.6
5) O=C(O)CCNC(=O)c1ccc(/N=N/c2ccc(O)c(C(=O)O)c2)cc1 [Feed Powder Sample A (#35.$01)] :: 85.7
6) O=C([O-])CCNC(=O)c1ccc(/N=N/c2ccc(O)c(C(=O)[O-])c2)cc1.[Na+].[Na+] [Sample 2] :: 96.0

* * *

Measured Cum. < Volume %, listed per entry.
test: Particle size distribution and specific surface area (LS 200, Small Volume Module, Fraunhofer optical model); assay type: physicochemical; details: Particle Diameter (Lower) 3.519 μm
Readout type: Cum. < Volume %

1. O=C(O)CCNC(=O)c1ccc(/N=N/c2ccc(O)c(C(=O)O)c2)cc1 [Feed Powder Sample A (#35.$01)] :: 19.9%
2. O=C([O-])CCNC(=O)c1ccc(/N=N/c2ccc(O)c(C(=O)[O-])c2)cc1.[Na+].[Na+] [Sample 2] :: 35.0%
3. O=C(O)CCNC(=O)c1ccc(/N=N/c2ccc(O)c(C(=O)O)c2)cc1 [Feed Powder Sample B (#41.$02)] :: 7.24%
4. O=C([O-])CCNC(=O)c1ccc(/N=N/c2ccc(O)c(C(=O)[O-])c2)cc1.[Na+].[Na+] [Sample 1] :: 31.6%
